System: Echinochloa crus-galli (ECHCG)
Experiment: Post-emergence herbicidal activity, glasshouse pot test
Type: in vivo
Settings: 360 h, rate 125 g/ha, evaluated 15 days later, 100=total damage to plant, 0=no damage to plant
PROPERTY: pest or weed control at 125 g/ha (%)
Output spec: scalar in %, unitless text.

CCc1ccc(-c2ccc(Cl)cc2C)cc1C1=C(O)[C@H]2[C@@H](C1=O)[C@]1(C)CC[C@@]2(C)O1	100
Cc1cc(-c2ccccc2)cc(C)c1C1=C(OC(=O)C(C)(C)C)[C@H]2[C@@H](C1=O)[C@]1(C)CC[C@@]2(C)O1	100
CCc1ccc(-c2ccc(Cl)c(Cl)c2F)cc1C1=C(O)[C@H]2[C@@H](C1=O)[C@]1(C)CC[C@@]2(C)O1	100
CCc1ccc(-c2ccc(Cl)c(C(F)(F)F)c2)cc1C1=C(O)[C@H]2[C@@H](C1=O)[C@]1(C)CC[C@@]2(C)O1	100
Cc1cc(-c2ccccc2)cc(C)c1C1C(=O)[C@@H]2[C@H](C1=O)[C@H]1CC[C@@H]2O1 (mixture of isomers)	70

Kindly consider the entry below.
Exercise: State, for Echinochloa crus-galli (ECHCG), measured pest or weed control at 125 g/ha of the compound listed here: Cc1cc(-c2ccccc2)cc(C)c1C1=C(OC(=O)C(C)(C)C)[C@H]2[C@@H](C1=O)[C@]1(C)CC[C@H]2O1
Key: 100

Attribution: patent US8940913B2
